Each entry below carries its reported growth inhibition.
assay_comment: NCI Yeast Anticancer Drug Screen. Data for the mlh1 rad18 strain (AID 175)
experimental_conditions: S. cerevisiae mlh1 rad18 strain growth inhibition; at 50.0 µM (retest, dose inferred, filed as 5.0); hits give high values
Compounds without any hit were thinned out: in the full panel of roughly 79,000, 15% have a hit.
quantity_name: growth inhibition (%)

• COCCn1cc(F)c(=O)[nH]c1=O = 20
• CC(O)c1cccnc1 (stereo unspecified) = 51
• Cc1ccccc1N=Nc1c(C)nn(C(N)=S)c1-c1ccccc1 = 97
• O=C(O)C(CCc1cccc2ccccc12)c1ccccc1 (stereo unspecified) = 98
• Cc1cc(-c2ccc(N=Nc3cc(S(=O)(=O)O)c4ccccc4c3N)c(C)c2)ccc1N=Nc1cc(S(=O)(=O)O)c2ccccc2c1N = 86
• O=C1Nc2ccccc2SC1c1ccccc1 (stereo unspecified) = 99
• O=C(CNc1ccc([N+](=O)[O-])cc1)Nn1c(-c2ccccc2)nc2ccccc2c1=O = 28
• Cc1cc(C)cc([C@H](C)N=Cc2cc(Br)ccc2O)c1 = 96
• O=C(NNc1ccccc1)C(O)C(O)C(O)C(O)C(O)C(O)C(O)CO (stereo unspecified) = 96
• O=C(CBr)N1c2ccccc2S(=O)(=O)c2ccc3ccccc3c21 = 97
• Cc1ccc(O)c(C(C)(C)c2ccccc2)c1 = 94
• COc1ccc(NC(=O)C(Cc2ccccc2)NC(C)=O)cc1 (stereo unspecified) = -25
• CCc1n[nH]c(CC)c1CCCCCCOc1ccc(OC)cc1Cl = 73
• COc1cc2c(cc1OC)C(N(C)C)C(c1ccccc1)=C2Cl (stereo unspecified) = 99
• Nc1ccc2ccc3cccc4ccc1c2c34 = 97
• Cc1sc(N=Nc2c(O)[nH]c3ccccc23)nc1-c1ccccc1 = 39
• COc1ccc(Br)c2c1CC(C(=O)O)CC2 (stereo unspecified) = -19
• S=C(NN1CCOCC1)SSC(=S)NN1CCOCC1 = 99
• Cc1cc(=O)c2c(ccc3cc4ccccc4cc32)[nH]1 = 49
• N=C(N)SCc1ccc(Br)cc1 = 2
• CCOP(=O)(CCC(=O)[C@@]1(O)CC[C@H]2[C@@H]3CCC4=CC(=O)CC[C@]4(C)[C@H]3CC[C@@]21C)OCC = 7
• ClCc1ccc(OCc2ccccc2)c(OCc2ccccc2)c1 = 87
• CCOC(=O)/C(=C\c1cccc([N+](=O)[O-])c1)C(C)=O = 99
• Cc1cc2ccc(N)nc2[nH]c1=O = 1
• C=C1CC(C)(C)C(c2ccccc2)OC1=O (stereo unspecified) = 87
• COc1ccc(OC)c(/C=C2/C(=O)ON=C2C)c1 = 23
• N#Cc1c(Cl)nnc(-c2ccccc2)c1-c1ccccc1 = 91
• O=C(Cc1ccc(C2=NCCN2)cc1[N+](=O)[O-])c1ccc(C2=NCCN2)cc1 = 68
• NC(=O)NOCC1NC(=O)NC1=O (stereo unspecified) = 8
• CC(C)(C)c1cc(C(P(=O)(c2ccccc2)c2ccccc2)P(=O)(c2ccccc2)c2ccccc2)cc(C(C)(C)C)c1O = 92
• S=C(NCCc1ccccn1)N/N=C/c1ccccn1 = 99

* * *

Each entry below carries its reported growth inhibition.
assay_comment: NCI Yeast Anticancer Drug Screen. Data for the rad50 strain (AID 155);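 note: 0% = growth of vehicle-only cultures of the same strain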
experimental_conditions: S. cerevisiae rad50 strain growth inhibition; at 50.0 µM; hits give high values
Compounds without any hit were thinned out: in the full panel of roughly 79,000, 15% have a hit.
quantity_name: growth inhibition (%)

- Cc1cc(C)cc([C@H](C)N=Cc2cc(Br)ccc2O)c1: 96
- C1=C(c2ccccc2)SC=C(c2ccccc2)S1: -15.7
- CCCOC(=O)C1CCCCC1C(=O)OCCC (stereo unspecified): 0.8
- CC(C)(C)C1=CC(N2CCCCC2)(C(C)(C)C)C=C(C(C)(C)C)C1=O: 93.8
- CC(C)SC(=S)Nc1cc(Cl)c(Cl)cc1Cl: 99.5
- Cc1c2ccccc2c(C)c2c1cc(F)c1ccccc12: 96.1
- O=S(=O)(c1cc(Br)ccc1O)c1cc(Br)ccc1O: 99.8
- CCOC(CCCl)OCC: 7.35
- CCOC(CCl)Oc1c(C(C)C)cc(C(C)C)c(Cl)c1C (stereo unspecified): 97.5
- CN1CCC(/C=C/c2cccc3ccccc23)CN1 (stereo unspecified) (tested in a mixture with another compound): 71.5
- CN(/N=C/C(O)C(O)C(O)CO)c1ccccc1 (stereo unspecified): 98
